System: HCT-15
Assay: Cytotoxicity against multidrug-resistant human HCT15 cells by thymidine incorporation assay
Format: functional, cell-based
Peptide text beside a SMILES is read from it.
property: IC50 (µM)
The answer is to be given in µM; state only the numeric part.

[
  {
    "compound": "CC(C)C[C@@H]1NC(=O)[C@H](Cc2ccccc2)NC(=O)[C@H](CC(C)C)NC(=O)[C@@H](C(C)C)NC(=O)[C@H](CC(C)C)NC1=O (HELM PEPTIDE1{F.L.L.[dV].L}$PEPTIDE1,PEPTIDE1,1:R1-5:R2$$$V2.0)",
    "IC50 (µM)": 0.8
  }
]

API: the following record is the query input.
Q: # input compound: CC(C)C[C@@H]1NC(=O)[C@H](C(C)C)NC(=O)[C@H](CC(C)C)NC(=O)[C@@H](CC(C)C)N(C)C(=O)[C@H](Cc2ccccc2)NC1=O (HELM PEPTIDE1{[CC(C)C[C@H](C(=O)[*:2])N(C)[*:1]].L.V.L.F}$PEPTIDE1,PEPTIDE1,1:R1-5:R2$$$V2.0) ; wanted: its IC50
A: 1.2

----------
Test system: HCT-15
Assay: Cytotoxicity against multidrug-resistant human HCT15 cells at 1 uM by thymidine incorporation assay
Format: functional
Peptide text beside a SMILES is read from it.
property: inhibition at 1 µM (%)
The answer is to be given in %; state only the numeric part.

[
  {
    "compound": "CC(C)C[C@@H]1NC(=O)[C@@H](Cc2ccccc2)NC(=O)[C@H](C(C)C)NC(=O)[C@@H](CC(C)C)NC(=O)[C@@H](CC(C)C)NC1=O (HELM PEPTIDE1{L.[dL].[dL].V.[dF]}$PEPTIDE1,PEPTIDE1,1:R1-5:R2$$$V2.0)",
    "target desc": "HCT-15",
    "property": "inhibition at 1 µM",
    "observed": 0
  }
]

API: the following record is the query input.
Q: # input compound: CC(C)C[C@@H]1NC(=O)[C@H](Cc2ccccc2)NC(=O)[C@@H](CC(C)C)N(C)C(=O)[C@H](C(C)C)NC(=O)[C@H](CC(C)C)NC1=O (HELM PEPTIDE1{F.L.L.V.[CC(C)C[C@H](C(=O)[*:2])N(C)[*:1]]}$PEPTIDE1,PEPTIDE1,1:R1-5:R2$$$V2.0) ; wanted: its inhibition at 1 µM
A: 33

----------
Recorded pIC50, one value per entry.
Tested on: HCT-15
Assay: Cytotoxicity against multidrug-resistant human HCT15 cells by thymidine incorporation assay
Assay type: functional, cell-based
Peptide text beside a SMILES is read from it.
Conceptually, pIC50 converts a concentration in mol/L into minus its log10.

Q: Find pIC50 (HCT-15) for the entry CC(C)C[C@@H]1NC(=O)[C@H](Cc2ccccc2)NC(=O)[C@@H](Cc2ccccc2)N(C)C(=O)[C@H](C(C)C)NC(=O)[C@H](CC(C)C)NC1=O
A: 6.15

Q: Find pIC50 (HCT-15) for the entry CC(C)C[C@@H]1NC(=O)[C@H](C(C)C)NC(=O)[C@H](CC(C)C)NC(=O)[C@H](CC(C)C)N(C)C(=O)[C@H](Cc2ccccc2)NC1=O (HELM PEPTIDE1{F.[meL].L.V.L}$PEPTIDE1,PEPTIDE1,1:R1-5:R2$$$V2.0)
A: 5.35
